So I've got a bunch of compounds here, and I need their residual activity values.
Target: Dual specificity mitogen-activated protein kinase kinase 1 (Homo sapiens)
Settings: at 10 µM
Description: Millipore: Percentage of residual kinase activity of MAP2K1 at 10uM relative to control. Control inhibitor: Phosphoric acid* at 0.3uM. Buffer: 50 mM Tris pH 7.5, 0.2 mM EGTA, 0.1% ?-mercaptoethanol, 0.01% Brij-35
Quick reminder: number only, in %, skip the unit.

Query: Can you share its residual activity? I mean this compound: O=C1Nc2ccc(Cl)cc2/C1=C/c1cc(Cl)c(O)c(Cl)c1
Response: 49

Query: Quick check: residual activity of Nc1ncnc2[nH]nc(Nc3ccc(F)cc3)c12 ?
Response: 23

Query: What does the record list as residual activity for Nc1nccc(-c2c(-c3ccc(F)cc3)ncn2C2CCNCC2)n1 ?
Response: 119

Query: Need residual activity of O=C(c1ccccc1)c1ccc(N2CCOCC2)cc1O , thanks.
Response: 90

Query: Give its residual activity value. Item: NCCNc1ncc(C(N)=O)c(Nc2cccc(C(F)(F)F)c2)n1
Response: 25

Query: Please give the measured residual activity for this compound: Cc1cc(C)c(/C=C2\C(=O)Nc3ccccc32)[nH]1
Response: 31

Query: I'd like to know its residual activity. The compound in question is O=C(CCCc1ccc(-c2ccccc2F)cc1)Nc1ccc(O)cc1
Response: 111

Query: Which value of residual activity has been reported for CCN(CC)CCNC(=O)c1c(C)[nH]c(/C=C2\C(=O)Nc3ccc(Cl)cc32)c1C in the records?
Response: 8

Query: Give the measured residual activity of O=C1Cc2c([nH]c3ccc(Br)cc23)-c2ccccc2N1 .
Response: 82

----------
For each entry below, report its residual activity value.
Molecular target: Serine/threonine-protein kinase Nek2 (Homo sapiens)
Sequence (whole entry): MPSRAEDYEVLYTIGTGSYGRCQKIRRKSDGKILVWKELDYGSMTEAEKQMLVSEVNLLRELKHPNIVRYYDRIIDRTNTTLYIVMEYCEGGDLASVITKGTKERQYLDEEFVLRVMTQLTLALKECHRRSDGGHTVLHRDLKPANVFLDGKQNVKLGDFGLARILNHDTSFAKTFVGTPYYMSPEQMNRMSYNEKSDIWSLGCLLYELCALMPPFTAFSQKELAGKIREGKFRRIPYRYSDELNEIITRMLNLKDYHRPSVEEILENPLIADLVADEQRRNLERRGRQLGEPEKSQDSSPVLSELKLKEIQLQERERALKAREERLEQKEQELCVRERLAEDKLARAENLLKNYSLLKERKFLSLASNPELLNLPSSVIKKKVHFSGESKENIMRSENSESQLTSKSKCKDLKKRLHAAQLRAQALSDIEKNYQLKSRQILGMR
Settings: at 1 µM
Description: Millipore: Percentage of residual kinase activity of NEK2 at 1uM relative to control. Control inhibitor: Phosphoric acid* at 0.3uM. Buffer: 8 mM MOPS pH 7.0, 0.2 mM EDTA
# unit: % | format: bare number

Query: Which residual activity value belongs to CC(C)c1nn(-c2c(Cl)cccc2Cl)c2nc(Cc3ccc(OCCO)cc3)[nH]c(=O)c12 ?
Response: 90

Query: Which residual activity is reported for this compound? O=C1Nc2ccc(Cl)cc2/C1=C/c1cc(Cl)c(O)c(Cl)c1
Response: 88

Query: What value of residual activity has been recorded for this entry: O=C(NC(NC(=S)Nc1ccc(F)c([N+](=O)[O-])c1)C(Cl)(Cl)Cl)C(c1ccccc1)c1ccccc1 (centres undefined)
Response: 90

Query: Entry under review: CC(C)(C)n1nc(Cc2cccc3ccccc23)c2c(N)ncnc21 . Reported residual activity?
Response: 78

Query: Reported residual activity, compound COc1cc2nccc(Oc3ccc(NC(=S)NC(=O)c4ccccc4C)cc3)c2cc1OC : ____
Response: 78

Query: Reported residual activity, compound COc1ccc(Cl)cc1NC(=O)Nc1cc(C)nc2ccccc12 : ____
Response: 78

Query: Sample COc1cc2c(cc1OC)-c1n[nH]c(Nc3cccc(F)c3)c1C2 — what was its residual activity?
Response: 82

Query: What value of residual activity has been recorded for this entry: O=c1cc(N2CCOCC2)oc2c1ccc1ccccc12
Response: 79

Query: Sample CC(C)N(CCC(=O)c1ccc2ccccc2c1)Cc1ccccc1 — what was its residual activity?
Response: 81

----------
Target: Serine/threonine-protein kinase 3 (Homo sapiens)
Details: at 10 µM
Observable: residual activity (%)
Field: numeric (%). Do not append units.

Query: Which residual activity is listed for NCCNc1ncc(C(N)=O)c(Nc2cccc(C(F)(F)F)c2)n1 ?
Response: 77

Query: Sample CC(C)c1nn(-c2c(Cl)cccc2Cl)c2nc(Cc3ccc(OCCO)cc3)[nH]c(=O)c12 — what was its residual activity?
Response: 78

Query: What value of residual activity has been recorded for this entry: Nc1ncnc2c1cnn2-c1ccccc1
Response: 93

Query: Could you tell me which residual activity is on file for O=C1NC(=O)C(c2c[nH]c3ccccc23)=C1c1c[nH]c2ccccc12 ?
Response: 9

Query: residual activity lookup needed for O=C(Nc1nc2ccccc2n1CCN1CCOCC1)c1cccc([N+](=O)[O-])c1 , thanks.
Response: 83

Query: So what does the record say about residual activity for CCN(CC)CCNC(=O)c1c(C)[nH]c(/C=C2\C(=O)Nc3ccc(Cl)cc32)c1C ?
Response: 2

Query: Fill in: residual activity of CSc1nc(-c2ccc(F)cc2)c(-c2ccnc(NC(C)c3ccccc3)c2)[nH]1 (configuration not stated) is ___
Response: 74

----------
Target: Serine/threonine-protein kinase Sgk2 (Homo sapiens)
Details: at 10 µM
Observable: residual activity

Query: For the record CSc1nc(-c2ccc(F)cc2)c(-c2ccnc(NC(C)c3ccccc3)c2)[nH]1 (stereo not drawn) , what value of residual activity is listed for Serine/threonine-protein kinase Sgk2 (Homo sapiens)?
Response: 91%

Query: API: value(readout=residual activity, system=Serine/threonine-protein kinase Sgk2 (Homo sapiens)) for record Oc1cccc(-c2nc(N3CCOCC3)c3oc4ncccc4c3n2)c1
Response: 66%

Query: API: value(readout=residual activity, system=Serine/threonine-protein kinase Sgk2 (Homo sapiens)) for record CCOC(=O)c1c(C)[nH]c(/C=C2\C(=O)Nc3ccccc32)c1C
Response: 76%

Query: State its residual activity on Serine/threonine-protein kinase Sgk2 (Homo sapiens): Nc1nc(Nc2ccc(S(N)(=O)=O)cc2)nn1C(=O)c1c(F)cccc1F
Response: 49%

Query: Reported residual activity for Serine/threonine-protein kinase Sgk2 (Homo sapiens), given O=C1Cc2c([nH]c3ccc(Br)cc23)-c2ccccc2N1 ?
Response: 74%

Query: Reported residual activity for Serine/threonine-protein kinase Sgk2 (Homo sapiens), given O=C(c1cc2cc(O)ccc2[nH]1)c1cc2cc(O)ccc2[nH]1 ?
Response: 18%

Query: Lab note: need residual activity for O=C1NC(=O)c2c1c1c3ccccc3[nH]c1n1cncc21 on Serine/threonine-protein kinase Sgk2 (Homo sapiens), anyone have it?
Response: 38%

Query: For Serine/threonine-protein kinase Sgk2 (Homo sapiens), provide residual activity of CCCCc1c(-c2ccc(O)cc2)[nH]c2nccnc12 please.
Response: 90%

Query: Lookup: residual activity / Serine/threonine-protein kinase Sgk2 (Homo sapiens) / O=C1C(Cl)=C(N2C(=O)CCC2=O)C(=O)c2ccccc21
Response: 97%

Query: Any idea what residual activity came out for Cn1c2ccccc2c2c3c(c4c5ccccc5n(CCC#N)c4c21)CNC3=O on Serine/threonine-protein kinase Sgk2 (Homo sapiens)?
Response: 47%

Query: For Serine/threonine-protein kinase Sgk2 (Homo sapiens), provide residual activity of O=C(CCCc1ccc(-c2ccccc2F)cc1)Nc1ccc(O)cc1 please.
Response: 135%

Query: State its residual activity on Serine/threonine-protein kinase Sgk2 (Homo sapiens): Cc1cc(C)c(/C=C2\C(=O)Nc3ccccc32)[nH]1
Response: 67%

Query: Form: Entry = O=C(O)/C=C/c1cc(Br)c(Br)c(Br)c1Br | System = Serine/threonine-protein kinase Sgk2 (Homo sapiens) | residual activity = ____
Response: 41%

----------
Provide the reported residual activity of each item.
Target: MAP kinase-activated protein kinase 2 (Homo sapiens) (UniProt P49137)
Sequence (P49137 whole entry, looked up): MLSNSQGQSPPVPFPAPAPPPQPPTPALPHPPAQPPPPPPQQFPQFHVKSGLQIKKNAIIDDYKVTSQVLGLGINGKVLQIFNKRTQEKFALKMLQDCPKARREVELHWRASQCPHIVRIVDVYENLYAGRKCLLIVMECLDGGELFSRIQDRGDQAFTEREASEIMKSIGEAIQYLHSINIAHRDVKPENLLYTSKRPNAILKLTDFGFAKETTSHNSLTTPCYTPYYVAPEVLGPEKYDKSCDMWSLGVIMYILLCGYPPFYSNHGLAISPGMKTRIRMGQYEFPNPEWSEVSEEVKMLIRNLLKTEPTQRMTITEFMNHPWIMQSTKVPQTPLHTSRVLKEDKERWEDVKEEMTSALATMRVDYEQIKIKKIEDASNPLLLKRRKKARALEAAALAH
Settings: at 10 µM
Quick note: give the figure in %, leave out the unit.

Query: # lookup: residual activity of O=C(c1ccccc1)c1ccc(N2CCOCC2)cc1O
Response: 89

Query: I would be grateful if you could share the reported residual activity for O=C1NC(=O)C(c2cn(CCCO)c3ncccc23)=C1c1cnccn1 .
Response: 93

Query: Using the record for Nc1ncnc2[nH]nc(Nc3ccc(F)cc3)c12 , report its residual activity.
Response: 95

Query: Any idea what residual activity was measured for CCCC(=O)Oc1ccc2[nH]c(C(=O)c3cc4ccccc4[nH]3)cc2c1 ?
Response: 87

Query: For the compound shown here, N#C/C(=C\c1ccc(O)c(O)c1)C(=O)NCc1ccccc1 , give the reported residual activity.
Response: 77

Query: Record request: residual activity value, item O=C1C(Cl)=C(N2C(=O)CCC2=O)C(=O)c2ccccc21
Response: 87

Query: Field request: residual activity | item: NC(=O)Nc1sc(-c2ccc(F)cc2)cc1C(N)=O
Response: 83

Query: May I ask what residual activity has been recorded for Cc1cc(C)c(/C=C2\C(=O)Nc3ccccc32)[nH]1 ?
Response: 103

Query: Could you share which residual activity value was measured for O=C1Nc2ccc(Cl)cc2/C1=C/c1cc(Cl)c(O)c(Cl)c1 ?
Response: 71

Query: Can you look up the measured residual activity of O=C(CCCc1ccc(-c2ccccc2F)cc1)Nc1ccc(O)cc1 for me?
Response: 76
